Taken from PubChem BioAssay AID2060511.

Tested on: 422866-222-R5-J1-PDC spheroids with HUVEC/MSC, viability
measurement notes: Anticancer human tumor 422866-222-R5-J1-PDC patient-derived pancreatic adenocarcinoma cell line growth inhibition [GQUAD]
condition description: second compound 0.316 µM; first compound 0.00999 µM; stronger effect = lower value
Excerpt: DNA G-quadruplex Stabilizer Agents in Combinations in Complex Spheroids A high-throughput screen of multi-cell type tumor spheroids was designed to identify active combinations of DNA G-quadruplex stabilizer agents and targeted small molecules. […] Compounds. […] If the clinical Cmax for an agent had not been determined, the highest concentration tested was 10 microM. […]
The reader will find reported viability, T/C values listed item by item below.
Express it in %; write the number only.

Worked set:
CC[C@@]1(O)C(=O)OCc2c1cc1n(c2=O)Cc2cc3c(CN(C)C)c(O)ccc3nc2-1 + CN(C)c1ccc(Nc2c3ccc(NC(=O)CCN4CCCC4)cc3nc3cc(NC(=O)CCN4CCCC4)ccc23)cc1 | 95.2
Cc1[nH]c2ccccc2c1CCNCc1ccc(/C=C/C(=O)NO)cc1 + Cc1cnc(CNC(=O)c2c(=O)c3ccc(N4CCCN(C)CC4)nc3n3c2sc2ccccc23)cn1 | 80.3

What does the record list as viability, T/C for Cn1ncnc1[C@H]1c2n[nH]c(=O)c3cc(F)cc(c23)N[C@@H]1c1ccc(F)cc1 + Cc1[nH]c2ccc(F)cc2c1-c1nc2c3cccnc3c3ncccc3c2[nH]1 ?
83.2

Same for Cn1ncnc1[C@H]1c2n[nH]c(=O)c3cc(F)cc(c23)N[C@@H]1c1ccc(F)cc1 + CN(C)c1ccc(Nc2c3ccc(NC(=O)CCN4CCCC4)cc3nc3cc(NC(=O)CCN4CCCC4)ccc23)cc1
81.5

Same for CCc1c2c(nc3ccc(O)cc13)-c1cc3c(c(=O)n1C2)COC(=O)[C@]3(O)CC + Cc1cnc(CNC(=O)c2c(=O)c3ccc(N4CCCN(C)CC4)nc3n3c2sc2ccccc23)cn1
56.4

====

Test system: 422866-222-R5-J1-PDC spheroids with HUVEC/MSC, viability
measurement notes: Anticancer human tumor 422866-222-R5-J1-PDC cell line growth inhibition [GQUAD];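 further: spheroids exposed to compounds for seven days before reading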
condition description: curve of first compound; second compound 3.16 µM
From the text: DNA G-quadruplex Stabilizer Agents in Combinations in Complex Spheroids A high-throughput screen of multi-cell type tumor spheroids was designed to identify active combinations of DNA G-quadruplex stabilizer agents and targeted small molecules. […] Compounds. […] If the clinical Cmax for an agent had not been determined, the highest concentration tested was 10 microM. […]
pIC50: −log10 of the molar value.
parameter measured: pIC50

Worked set:
COc1ncnc(C2CC2)c1-c1ncc2cnn(Cc3ccc(-c4nc(C(F)(F)F)cn4C(C)C)cc3)c2n1 + CN(C)c1ccc(Nc2c3ccc(NC(=O)CCN4CCCC4)cc3nc3cc(NC(=O)CCN4CCCC4)ccc23)cc1 | < 5.00
O=C(c1cc(Cc2n[nH]c(=O)c3ccccc23)ccc1F)N1CCN(C(=O)C2CC2)CC1 + CN(C)c1ccc(Nc2c3ccc(NC(=O)CCN4CCCC4)cc3nc3cc(NC(=O)CCN4CCCC4)ccc23)cc1 | < 5.00
CCCS(=O)(=O)Nc1ccc(F)c(C(=O)c2c[nH]c3ncc(-c4ccc(Cl)cc4)cc23)c1F + Cc1[nH]c2ccc(F)cc2c1-c1nc2c3cccnc3c3ncccc3c2[nH]1 | 6.53

What does the record list as pIC50 for C=CCn1c(=O)c2cnc(Nc3ccc(N4CCN(C)CC4)cc3)nc2n1-c1cccc(C(C)(C)O)n1 + CN(C)c1ccc(Nc2c3ccc(NC(=O)CCN4CCCC4)cc3nc3cc(NC(=O)CCN4CCCC4)ccc23)cc1 ?
6.22

Same for CC1COCCN1c1cc(C2(S(C)(=N)=O)CC2)nc(-c2ccnc3[nH]ccc23)n1 (stereo unspecified) + Cc1[nH]c2ccc(F)cc2c1-c1nc2c3cccnc3c3ncccc3c2[nH]1
5.64

Same for O=C(c1cc(Cc2n[nH]c(=O)c3ccccc23)ccc1F)N1CCN(C(=O)C2CC2)CC1 + Cc1cnc(CNC(=O)c2c(=O)c3ccc(N4CCCN(C)CC4)nc3n3c2sc2ccccc23)cn1
< 5.00

Same for Cn1ncnc1[C@H]1c2n[nH]c(=O)c3cc(F)cc(c23)N[C@@H]1c1ccc(F)cc1 + Cc1[nH]c2ccc(F)cc2c1-c1nc2c3cccnc3c3ncccc3c2[nH]1
< 6.50

Same for CC1COCCN1c1cc(C2(O)CC3CCC(C2)O3)c2cnn(-c3ccn[nH]3)c2n1 (stereo unspecified) + Cc1[nH]c2ccc(F)cc2c1-c1nc2c3cccnc3c3ncccc3c2[nH]1
> 7.50

Same for Cn1ncnc1[C@H]1c2n[nH]c(=O)c3cc(F)cc(c23)N[C@@H]1c1ccc(F)cc1 + Cc1cnc(CNC(=O)c2c(=O)c3ccc(N4CCCN(C)CC4)nc3n3c2sc2ccccc23)cn1
< 6.50

Same for COc1ncnc(C2CC2)c1-c1ncc2cnn(Cc3ccc(-c4nc(C(F)(F)F)cn4C(C)C)cc3)c2n1 + Cc1[nH]c2ccc(F)cc2c1-c1nc2c3cccnc3c3ncccc3c2[nH]1
< 5.00

Same for CC[C@@]1(O)C(=O)OCc2c1cc1n(c2=O)Cc2cc3c(CN(C)C)c(O)ccc3nc2-1 + Cc1cnc(CNC(=O)c2c(=O)c3ccc(N4CCCN(C)CC4)nc3n3c2sc2ccccc23)cn1
< 6.50
